target: Steroidogenic factor 1 (Homo sapiens, UniProt Q13285); assay: inhibition of SF-1 LBD-driven luciferase – cell-based, CHO-K1, Gal4-SF-1 LBD, luciferase luminescence, counter-screen for RORA inhibitor project, dose response (AID 611); conditions: inactive by the depositor's call
Sequence (Q13285 whole entry, the tested form may be a part): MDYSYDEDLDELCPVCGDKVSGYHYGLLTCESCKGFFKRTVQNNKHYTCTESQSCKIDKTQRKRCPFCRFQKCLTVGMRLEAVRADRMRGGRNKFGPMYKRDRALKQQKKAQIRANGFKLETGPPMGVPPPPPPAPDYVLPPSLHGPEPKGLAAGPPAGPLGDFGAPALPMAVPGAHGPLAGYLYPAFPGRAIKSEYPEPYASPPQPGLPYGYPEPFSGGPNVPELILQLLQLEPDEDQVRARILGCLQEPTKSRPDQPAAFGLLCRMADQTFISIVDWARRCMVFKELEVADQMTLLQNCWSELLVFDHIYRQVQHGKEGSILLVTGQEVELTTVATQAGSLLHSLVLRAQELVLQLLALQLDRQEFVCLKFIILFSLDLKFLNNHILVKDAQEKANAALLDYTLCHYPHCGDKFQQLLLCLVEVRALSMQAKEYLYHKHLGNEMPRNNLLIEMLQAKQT
PROPERTY LABEL: IC50 (µM)

Here's what some known entries look like.
CCOC(=O)c1c(C)[nH]c(C(=O)C(C)OC(=O)c2cccc(OCc3c(C)noc3C)c2)c1C (stereo unspecified)	10.6
Cc1ccc(S(=O)(=O)Nc2ccc3ncccc3c2)cc1	12.4
Cc1cc(C)n2nc(SCC(=O)c3cc(C)n(-c4cc(C)on4)c3C)nc2n1	16.8
CC(=O)c1ccc(N2CCN(c3ccc(C(F)(F)F)cn3)CC2)cc1	11.4

[I] O=C(CSc1nnc(Cn2nnc3ccccc32)o1)N(Cc1ccc(F)cc1)c1ccccc1
[II] COc1ccc(CNc2cc(C)nc3ncnn23)c(OC)c1
Query: Identify the entry with the larger IC50. Options: I and II Mark your selection by writing its label.
Response: II
(II: 23.4 µM, I: 11 µM)

====

biological target: UniProtKB Q13285; assay: inhibition of SF-1 LBD-driven luciferase – cell-based, CHO-K1, Gal4-SF-1 LBD, luciferase luminescence, counter-screen for RORA inhibitor project, dose response (AID 611)
pIC50: −log10 of the molar value.
PROPERTY LABEL: pIC50

Cc1oc2cc3c(C(=O)OCCN(C)C)c(C)oc3cc2c1C(=O)OCCN(C)C	6.05

[a] CCOC(=O)CS(=O)(=O)c1nc(-c2ccc(F)cc2)cc(C(F)(F)F)n1
[b] Cc1ccc(-c2nc(-c3ccccc3)no2)c(Cl)c1
Query: Param metric = pIC50; output whichever of a , b has the minimum value. Refer to your chosen entry by its label in the reply.
Response: a

====

biological target: UniProt:Q13285; test: inhibition of SF-1 LBD-driven luciferase – cell-based, CHO-K1, Gal4-SF-1 LBD, luciferase luminescence, counter-screen for RORA inhibitor project, dose response (AID 611)
PROPERTY LABEL: IC50 (µM)

O=S(=O)(NCc1ccncc1)c1ccc(Br)s1	3.74
C[C@H]1CCCC=CC2C[C@H](O)CC2[C@H](O)C=CC(=O)O1 (stereo partly drawn)	8.95
CCOc1ccc(-c2cc(CCCC(=O)NCCCOC)no2)cc1	2.64
CN(C)c1ccc(-c2nc3ccccc3n2C)cc1 [MLS000089904]	6.81
COc1ccc(-c2nc(-c3ccccc3)no2)c(OC)c1	2.82
COc1ccc(OCc2cccc(C(=O)O)c2)cc1 [3-[(4-methoxyphenoxy)methyl]benzoic acid]	0.37
COCCNC(=O)CSCc1nc(-c2ccc(SC)cc2)oc1C [MLS000089367]	0.656
O=C(CSC1=NCCS1)Nc1ccnc2ccccc12	5.95
CC(NC(=O)Nc1nnc(C(F)(F)F)s1)(C(F)(F)F)C(F)(F)F	5.6
CN(C)C(=O)CCc1nc(-c2ccc(C(C)(C)C)cc2)no1	1.1

[P] c1ccc2c(c1)CCN(c1ncnc3c1[nH]c1ccccc13)C2 [SMR000039631]
[Q] O=C(CC=Nc1ccc2c(c1)OCO2)c1ccccn1
Query: I need your help: which of the pair P , Q has higher IC50? Lab note: record the label of whichever item you select.
Response: P

[a] c1ccc(CNc2ncnc3ccccc23)cc1 [N-benzylquinazolin-4-amine]
[b] CCOc1cc(C(=O)CSc2nnc(CNc3ccc(Cl)cc3)o2)ccc1NC(=O)CC [MLS000032332]
Query: Could you point out whether the larger IC50 belongs to a or to b ? Please identify the chosen entry by its label.
Response: a
(a: 21.9 µM, b: 7.64 µM)

Hello, the source for this data is BindingDB's records for doi:10.7270/Q2PR7TCX, in case you need it.
